- Species: Rattus norvegicus
- MEASUREMENT_PROTOCOL: DrugMatrix - Regimen: Daily Repeat
- Format: toxicity, organism-based, Sprague-Dawley
- Design: regimen Daily Repeat, gender Male, age 6-8 weeks
- EXPERIMENTAL_CONTEXT: in vivo, po, 0 mg/kg, 72 h, tissue Plasma, route oral GAVAGE, dose level Control, time 3 day, vehicle 100 % WATER
PROPERTY_MEASURED: TOTAL PROTEIN (G/DL)

| COMPOUND | DISPLAY_UNIT | MEASURED_NUMBER |
| --- | --- | --- |
| CC(C)(S)[C@@H](N)C(=O)O [PENICILLAMINE] | G/DL | 6.1 |
| NCC1(CC(=O)O)CCCCC1 [GABAPENTIN] | G/DL | 5.65 |
| COc1cc2c(N3CCN(C(=O)Nc4ccc(OC(C)C)cc4)CC3)ncnc2cc1OCCCN1CCCCC1 [TANDUTINIB] | G/DL | 6.32 |
| NC(=O)c1ncn([C@@H]2O[C@H](CO)[C@@H](O)[C@H]2O)n1 [RIBAVIRIN] | G/DL | 5.8 |
| Nc1ccc(S(=O)(=O)Nc2ccnn2-c2ccccc2)cc1 [SULFAPHENAZOLE] | G/DL | 5.77 |
| CC1COc2c(N3CCN(C)CC3)c(F)cc3c(=O)c(C(=O)O)cn1c23 (stereo not given) [OFLOXACIN] | G/DL | 5.68 |
| CN1CCN(C(=O)OC2c3nccnc3C(=O)N2c2ccc(Cl)cn2)CC1 (stereo not given) [ZOPICLONE] | G/DL | 5.95 |
| CC(CCc1ccccc1)NCC(O)c1ccc(O)c(C(N)=O)c1 (stereo not given) [LABETALOL] | G/DL | 5.85 |
| Cc1cc(NS(=O)(=O)c2ccc(N)cc2)no1 [SULFAMETHOXAZOLE] | G/DL | 5.83 |
| NNC(=O)c1ccncc1 [ISONIAZID] | G/DL | 5.77 |
| CC1(C)S[C@@H]2[C@H](NC(=O)[C@H](N)c3ccc(O)cc3)C(=O)N2[C@H]1C(=O)O [AMOXICILLIN] | G/DL | 6.08 |
| CN1CCC[C@H]1c1cccnc1 [NICOTINE] | G/DL | 5.68 |
| CNCCC=C1c2ccccc2CCc2ccccc21 [NORTRIPTYLINE] | G/DL | 5.7 |
| COc1cccc(C2(O)CCCCC2CN(C)C)c1 (stereo not given) [TRAMADOL] | G/DL | 6.08 |
| C[C@]12Cc3c[nH]nc3C[C@@H]1CC[C@@H]1[C@@H]2CC[C@@]2(C)[C@H]1CC[C@]2(C)O [STANOZOLOL] | G/DL | 6.08 |
| O=C1NC(=O)C(c2ccccc2)(c2ccccc2)N1 [PHENYTOIN] | G/DL | 5.7 |
| Fc1ccc([C@@H]2CCNC[C@H]2COc2ccc3c(c2)OCO3)cc1 [PAROXETINE] | G/DL | 6.08 |
| Cn1cnc([N+](=O)[O-])c1Sc1ncnc2nc[nH]c12 [AZATHIOPRINE] | G/DL | 5.9 |
| COc1ccc(C(CN(C)C)C2(O)CCCCC2)cc1 (stereo not given) [VENLAFAXINE] | G/DL | 5.83 |
| Clc1ccc(C(c2ccccc2Cl)C(Cl)Cl)cc1 (stereo not given) [MITOTANE] | G/DL | 6.1 |
